Tested on: Fibroblast
Assay: Multiplex assay against human fibroblast
Assay type: toxicity, cell-based
Details: 48 h, 1 µM, compound concentration 1 uM, replicate 1
MEASUREMENT NAME: Population Mitochondria Different-Phenotype (%)
A number alone suffices; assume %.

Known results for molecules:
> print(dat)
                                   molecule  measurement.units  result.value
1  CN(C)C(=O)N[C@H]1CC[C@H](CCN2CCN(c3cccc(Cl)c3Cl)CC2)CC1.Cl [CARIPRAZINE HYDROCHLORIDE]                  %             4
2  Cl.N#Cc1ccc2[nH]cc(CCCCN3CCN(c4ccc5oc(C(N)=O)cc5c4)CC3)c2c1 [VILAZODONE HYDROCHLORIDE]                  %             0
3  COc1cc(-n2cnc3cc(-c4ccc(Cl)cc4)sc3c2=O)ccc1OCCN1CCCC1                  %             4
4  C=CC(=O)Nc1cccc(C(=O)Nc2ccc(Nc3cc(-c4[nH]c(SC)nc4C)ccn3)cc2)c1                  %             3
5  Cc1cc(C)cc(-c2cnc3cc(Cl)c(-c4cccc(O)c4)cc3c2OCCCN)c1                  %            37
6  COc1cccc([C@@H](C)NCCCc2ccccc2Cl)c1.Cl [TECALCET HYDROCHLORIDE]                  %             3
7  Cc1c(-c2ccc(O)cc2)n(Cc2ccc(OCCN3CCCCCC3)cc2)c2ccc(O)cc12                  %             4
8  CNc1nc(NCc2ccc(NS(C)(=O)=O)cc2Cl)cc(-c2ccccn2)n1                  %             7

Request - read-out Population Mitochondria Different-Phenotype (%) | tested on Fibroblast | molecule Cn1cc(-c2[nH]c3cc(NC(=O)[C@H](N)C4CCCCC4)cc4c3c2C=NNC4=O)cn1
3

Enter reported Population Mitochondria Different-Phenotype (%) observed with Fibroblast for c1cn2cc(-c3ccc4cn[nH]c4c3)nc(Nc3ccc(N4CCOCC4)cc3)c2n1
6

Find Population Mitochondria Different-Phenotype (%) (Fibroblast) for the entry CN1CCC[C@@H]1CCO[C@](C)(c1ccccc1)c1ccc(Cl)cc1.O=C(O)/C=C/C(=O)O [CLEMASTINE FUMARATE]
2

Item: CC[C@H](C)C(=O)O[C@H]1C[C@@H](C)C=C2C=C[C@H](C)[C@H](CC[C@@H]3C[C@@H](O)CC(=O)O3)[C@H]21 Test system: Fibroblast Read-out: Population Mitochondria Different-Phenotype (%) Value: ?
0

Report Population Mitochondria Different-Phenotype (%) for Cc1nc(-c2ccc(-c3ccc(C(=O)N4CCc5cc6c(cc54)C4(CCN(C)CC4)CO6)cc3)c(C)c2)no1 tested on Fibroblast.
6

Quick check: Population Mitochondria Different-Phenotype (%) on Fibroblast, item C[C@@H](NCCCc1cccc(C(F)(F)F)c1)c1cccc2ccccc12.Cl [CINACALCET HYDROCHLORIDE] ?
5

Recorded Population Mitochondria Different-Phenotype (%) for C=CC(=O)Nc1ccc2ncnc(Nc3ccc(OCc4cccc(F)c4)c(Cl)c3)c2c1.Cc1ccc(S(=O)(=O)O)cc1 with Fibroblast, please?
0
